# test_description: Primary qHTS for delayed death inhibitors of the malarial parasite plastid, 96 hour incubation; also: potency is read from the fitted curve at half-maximal effect
# protocol_conditions: P. falciparum luciferase reporter growth; series mostly up to 28.7 µM
The campaign covered roughly 320,000 compounds. About 22,000 (6.9%) were called active. About 27% were inconclusive and are not listed. The sample holds actives, similar compounds and a random draw of the others, so the mix is not that of the screen.
metric_name: Potency

Please review the following examples before continuing.
# Potency lookup, item C/C(=N\NC(=O)c1cccnc1)c1ccc(-c2ccccc2)cc1 inactive

Proceed to CN(Cc1ccccc1)C(=O)c1cccc(C(=O)N(C)Cc2ccccc2)c1 13.1 µM (active)

Request: CC(=O)Nc1ccc(NC(=O)C(NS(=O)(=O)c2ccc3c(c2)OCCO3)C(C)C)cc1 (centres undefined) inactive

Input CC(C)C[C@H](NC(=O)N1CCn2c1nc1ccccc12)C(=O)NC1CC1 inactive

Thanks! And FC(F)(F)c1cccc(-c2nc(COc3ccc(Cl)cc3Cl)no2)c1 ? inactive

Lookup CN(Cc1ccccc1)C(=O)CCc1ccccc1 inactive

Next:
Name the recorded Potency for CCN(CC(=O)NCc1cccs1)C(=O)c1cccc(S(=O)(=O)Nc2ccccc2OC)c1 . inactive

Ok, now O=C1CN(C(=O)CN2C(=O)NC3(CCCCC3)C2=O)c2ccccc2N1 14.7 µM (active)

Also need COc1cccc2cc(C(=O)N3CCN(C(=O)c4ccccc4)CC3)c(=O)oc12 , thanks. inactive

# repeat for O=C(CN(C(=O)CCC(=O)Nc1nccs1)c1ccc(F)cc1)NCc1ccc2c(c1)OCO2 inactive

Now try COCCN(C(=S)Nc1ccccc1OC)C1CCN(C(C)C)CC1 . inactive

Okay, and Cc1ccccc1NCC(=O)N/N=C\c1ccc([N+](=O)[O-])s1 ? inactive

Next up: Cc1cc(OCCCC(=O)NCCN2C(=O)S/C(=C\c3cccnc3)C2=O)ccc1Cl 11.7 µM (active)

Now the molecule CCCCOC(=O)Cn1c(=O)n(CC(=O)OCCCC)c2cc(C)ccc21 inactive

Consider next the molecule COc1ccc(C2=NS(=O)(=O)N(C)C(C(=O)NC(C)c3ccccc3)=C2)cc1 (centres undefined) in the same way. inactive
